Test system: Klebsiella pneumoniae
Assay: Antibacterial activity against Klebsiella pneumoniae ATCC 13883 after 6 to 8 hrs by bacterial proliferation assay
Type: functional, organism-based
Items are presented alongside their recorded EC50.

Known EC50 results, listed for orientation:
>  <compound>
COc1ccc(Br)cc1C(=O)Nc1ccc(Sc2nc3ccccc3s2)cc1

>  <EC50>
> 100 µM

$$$$
>  <compound>
CO[C@H]1/C=C/O[C@@]2(C)Oc3c(C)c(O)c4c(O)c(c(/C=N/N5CCN(C)CC5)c(O)c4c3C2=O)NC(=O)/C(C)=C\C=C\[C@H](C)[C@H](O)[C@@H](C)[C@@H](O)[C@@H](C)[C@H](OC(C)=O)[C@@H]1C

>  <EC50>
11 µM

$$$$
>  <compound>
O=C(Nc1ccc(Sc2nc3ccccc3s2)cc1)c1ccccc1

>  <EC50>
> 100 µM

$$$$
>  <compound>
CCCCCCCCCC(=O)N[C@@H](Cc1c[nH]c2ccccc12)C(=O)NC(CC(N)=O)C(=O)N[C@@H](CC(=O)O)C(=O)N[C@@H]1C(=O)NCC(=O)N[C@@H](CCCN)C(=O)N[C@@H](CC(=O)O)C(=O)N[C@H](C)C(=O)N[C@@H](CC(=O)O)C(=O)NCC(=O)N[C@H](CO)C(=O)N[C@@H]([C@H](C)CC(=O)O)C(=O)N[C@@H](CC(=O)c2ccccc2N)C(=O)O[C@@H]1C (single isomer, unassigned)

>  <EC50>
> 100 µM

$$$$

Please turn your attention to the following entry.
// EC50 value for `COc1c(Br)cccc1C(=O)Nc1ccc(Sc2nc3ccccc3s2)cc1` : > 100 µM

* * *

Assay: Cytotoxicity against human THLE3 cells assessed as reduction in cell viability after 48 hrs by Alamar Blue reporter assay
Details: 48 h
Each entry below carries its recorded CC50.
Value expressed in µM; do not type the unit.

Below: 4 compounds and their reported CC50.
>  <compound>
Cc1cc(C(C#N)c2ccc(Cl)cc2)c(Cl)cc1NC(=O)c1cc(I)cc(I)c1O (stereo not given) [CLOSANTEL]

>  <CC50, µM>
52

$$$$
>  <compound>
O=C(Nc1ccc(Sc2nc3ccccc3s2)cc1)c1cccc(Br)c1O

>  <CC50, µM>
36

$$$$
>  <compound>
COc1ccc(Br)cc1C(=O)Nc1cccc(Cl)c1

>  <CC50, µM>
94

$$$$
>  <compound>
O=C(Nc1ccc(Sc2nc3ccccc3s2)cc1)c1cccc(Br)c1

>  <CC50, µM>
82

$$$$

// next item, CC50 requested
Entry `O=C(Nc1cccc(Cl)c1)c1ccccc1O` ; CC50 = 16

* * *

System: Staphylococcus aureus
Experiment: Antibacterial activity against Staphylococcus aureus ATCC 25923 after 6 to 8 hrs by bacterial proliferation assay
Assay type: functional, organism-based
measurement_kind: pEC50
Convention used: pEC50 is expressed as -log10 of the molar concentration.

Worked cases, answers included:
>  <compound>
O=C(Nc1ccc(Sc2nc3ccccc3s2)cc1)c1ccccc1O

>  <pEC50>
6.70

$$$$
>  <compound>
O=C(Nc1ccc(Sc2nc3ccccc3s2)cc1)c1cc(Br)ccc1O

>  <pEC50>
6.92

$$$$

Okay, next one:
Measured pEC50 of CCCCCCCCCC(=O)N[C@@H](Cc1c[nH]c2ccccc12)C(=O)NC(CC(N)=O)C(=O)N[C@@H](CC(=O)O)C(=O)N[C@@H]1C(=O)NCC(=O)N[C@@H](CCCN)C(=O)N[C@@H](CC(=O)O)C(=O)N[C@H](C)C(=O)N[C@@H](CC(=O)O)C(=O)NCC(=O)N[C@H](CO)C(=O)N[C@@H]([C@H](C)CC(=O)O)C(=O)N[C@@H](CC(=O)c2ccccc2N)C(=O)O[C@@H]1C (single isomer, unassigned) : 6.17

* * *

log10 of EC50 values for the compounds below.
System: Staphylococcus aureus
Assay: Antibacterial activity against methicillin-resistant Staphylococcus aureus ATCC BAA-44 after 6 to 8 hrs by bacterial proliferation assay
Type: functional, organism-based
Conditions: Staphylococcus aureus, ATCC BAA-44
Recall that a logarithmic scale is used here: each number is log10 of EC50 in µM.

>  <compound>
O=C(Nc1ccccc1)c1cc(Br)ccc1O

>  <measured>
0.61

$$$$
>  <compound>
O=C(Nc1cccc(Cl)c1)c1cccc(Br)c1O

>  <measured>
0.30

$$$$
>  <compound>
O=C(Nc1ccccc1)c1cccc(Br)c1O

>  <measured>
1.00

$$$$
>  <compound>
O=C(Nc1cccc(Cl)c1)c1cccc(Br)c1

>  <measured>
1.83

$$$$
>  <compound>
CCCCCCCCCC(=O)N[C@@H](Cc1c[nH]c2ccccc12)C(=O)NC(CC(N)=O)C(=O)N[C@@H](CC(=O)O)C(=O)N[C@@H]1C(=O)NCC(=O)N[C@@H](CCCN)C(=O)N[C@@H](CC(=O)O)C(=O)N[C@H](C)C(=O)N[C@@H](CC(=O)O)C(=O)NCC(=O)N[C@H](CO)C(=O)N[C@@H]([C@H](C)CC(=O)O)C(=O)N[C@@H](CC(=O)c2ccccc2N)C(=O)O[C@@H]1C (single isomer, unassigned)

>  <measured>
0.00

$$$$
>  <compound>
O=C(Nc1ccc(Sc2nc3ccccc3s2)c(Cl)c1)c1ccccc1O

>  <measured>
-0.35

$$$$
>  <compound>
O=C(Nc1ccc(Sc2nc3ccccc3s2)c(Cl)c1)c1cc(Br)cc(Br)c1O

>  <measured>
-0.26

$$$$
>  <compound>
O=C(Nc1ccc(Sc2nc3ccccc3s2)c(Cl)c1)c1cccc(Br)c1O

>  <measured>
-0.15

$$$$
>  <compound>
O=C(Nc1ccc(Sc2nc3ccccc3s2)c(Cl)c1)c1cc(Br)ccc1O

>  <measured>
-0.77

$$$$

Kindly consider the entry below.
Form field log10 of EC50, entry `O=C(Nc1ccc(Sc2nc3ccccc3s2)cc1)c1cccc(Br)c1O` : 0.04

* * *

molecules and their reported selectivity ratio
Assay: Therapeutic index, ratio of CC50 for HEK293 cells to EC50 for methicillin-resistant Staphylococcus aureus ATCC BAA-44
Format: toxicity
Conditions: human, read-out: Ratio CC50/EC50

selectivity ratio measured on `O=C(Nc1cccc(Cl)c1)c1cc(Br)cc(Br)c1O` = > 50

The measured selectivity ratio associated with `O=C(Nc1ccc(Sc2nc3ccccc3s2)c(Cl)c1)c1cc(Br)cc(Br)c1O` reads > 50

# molecule `O=C(Nc1ccc(Sc2nc3ccccc3s2)cc1)c1cc(Br)cc(Br)c1O` ; its selectivity ratio = > 50

Value of selectivity ratio reported for the molecule `O=C(Nc1ccccc1)c1cc(Br)cc(Br)c1O` is > 50

* * *

Target: E. coli GroEL/ES (Escherichia coli)
Sequence (P0A6F5 whole entry, looked up): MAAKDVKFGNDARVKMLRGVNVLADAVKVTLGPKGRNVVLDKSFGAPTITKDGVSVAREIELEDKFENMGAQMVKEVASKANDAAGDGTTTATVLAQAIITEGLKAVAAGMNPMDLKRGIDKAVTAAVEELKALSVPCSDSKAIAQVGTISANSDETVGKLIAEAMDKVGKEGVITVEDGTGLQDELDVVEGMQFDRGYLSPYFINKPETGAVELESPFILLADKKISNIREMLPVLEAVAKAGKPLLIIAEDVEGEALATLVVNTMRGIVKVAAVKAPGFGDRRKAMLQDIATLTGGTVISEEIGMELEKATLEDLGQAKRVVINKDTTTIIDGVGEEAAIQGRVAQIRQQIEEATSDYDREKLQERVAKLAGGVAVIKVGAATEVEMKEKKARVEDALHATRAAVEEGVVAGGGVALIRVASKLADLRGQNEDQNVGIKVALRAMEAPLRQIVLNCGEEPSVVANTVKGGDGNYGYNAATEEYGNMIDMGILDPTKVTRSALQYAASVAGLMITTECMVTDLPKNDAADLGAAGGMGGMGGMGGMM
Assay: Inhibition of Escherichia coli GroEL expressed in Escherichia coli DH5alpha/Escherichia coli GroES expressed in Escherichia coli BL21 (DE3) assessed as reduction in GroEL/GroES-mediated denatured MDH refolding after 20 to 40 mins by spectrometric analysis
IC50 by entry:

Please review the following examples before continuing.
>  <structure_smiles>
O=C(Nc1ccc(Sc2nc3ccccc3s2)c(Cl)c1)c1ccccc1O

>  <IC50>
42 µM

$$$$
>  <structure_smiles>
COc1c(Br)cc(Br)cc1C(=O)Nc1ccccc1

>  <IC50>
> 100 µM

$$$$
>  <structure_smiles>
O=C(Nc1ccc(Sc2nc3ccccc3s2)c(Cl)c1)c1cc(Br)ccc1O

>  <IC50>
37 µM

$$$$

Please fill in: IC50 reported for `O=C(Nc1ccc(Sc2nc3ccccc3s2)cc1)c1cc(Br)ccc1O` = 38 µM

IC50 for `COc1ccc(Br)cc1C(=O)Nc1ccc(Sc2nc3ccccc3s2)c(Cl)c1` is > 100 µM

get_value(item= `COc1c(Br)cccc1C(=O)Nc1cccc(Cl)c1` , readout=IC50) returns > 100 µM

The value of IC50 measured for the compound `O=C(Nc1ccc(Sc2nc3ccccc3s2)c(Cl)c1)c1cccc(Br)c1` turned out to be > 100 µM

* * *

Test: Cytotoxicity against HEK293 cells assessed as reduction in cell viability after 48 hrs by Alamar Blue reporter assay
Conditions: human, HEK293 cells
measurement_kind: CC50 at 48 h

Input CCCCCCCCCC(=O)N[C@@H](Cc1c[nH]c2ccccc12)C(=O)NC(CC(N)=O)C(=O)N[C@@H](CC(=O)O)C(=O)N[C@@H]1C(=O)NCC(=O)N[C@@H](CCCN)C(=O)N[C@@H](CC(=O)O)C(=O)N[C@H](C)C(=O)N[C@@H](CC(=O)O)C(=O)NCC(=O)N[C@H](CO)C(=O)N[C@@H]([C@H](C)CC(=O)O)C(=O)N[C@@H](CC(=O)c2ccccc2N)C(=O)O[C@@H]1C (single isomer, unassigned) [DAPTOMYCIN] . Output CC50 at 48 h: > 100 µM

* * *

Test system: Staphylococcus aureus
Experiment: Antibacterial activity against methicillin-resistant Staphylococcus aureus ATCC BAA-44 after 6 to 8 hrs by bacterial proliferation assay
Assay type: functional, organism-based
Conditions: Staphylococcus aureus, ATCC BAA-44
pEC50: −log10 of the molar value.
measurement_kind: pEC50

Observe how each entry below is paired with its result.
>  <compound>
COc1c(Br)cc(Br)cc1C(=O)Nc1ccccc1

>  <test_system>
Staphylococcus aureus

>  <measured>
< 4.00

$$$$
>  <compound>
O=C(Nc1ccccc1)c1cc(Br)cc(Br)c1

>  <test_system>
Staphylococcus aureus

>  <measured>
< 4.00

$$$$
>  <compound>
O=C(Nc1ccc(Sc2nc3ccccc3s2)cc1)c1ccccc1

>  <test_system>
Staphylococcus aureus

>  <measured>
< 4.00

$$$$
>  <compound>
O=C(Nc1cccc(Cl)c1)c1ccccc1O

>  <test_system>
Staphylococcus aureus

>  <measured>
5.38

$$$$

Form: compound = `O=C(Nc1ccc(Sc2nc3ccccc3s2)c(Cl)c1)c1ccccc1` ; pEC50 = < 4.00

// pEC50 value for CN[C@H](CC(C)C)C(=O)N[C@H]1C(=O)N[C@@H](CC(N)=O)C(=O)N[C@H]2C(=O)N[C@H]3C(=O)N[C@H](C(=O)N[C@H](C(=O)O)c4cc(O)cc(O)c4-c4cc3ccc4O)[C@H](O)c3ccc(c(Cl)c3)Oc3cc2cc(c3O[C@@H]2O[C@H](CO)[C@@H](O)[C@H](O)[C@H]2O[C@H]2C[C@](C)(N)[C@H](O)[C@H](C)O2)Oc2ccc(cc2Cl)[C@H]1O [VANCOMYCIN] : 6.28

For this compound ( `COc1ccc(Br)cc1C(=O)Nc1cccc(Cl)c1` ), measured pEC50 is < 4.00

// field: pEC50; key: `COc1c(Br)cccc1C(=O)Nc1ccccc1` ; value = < 4.00
